Tested on: HOP-62
protocol.description: NCI tumour cell line growth inhibition, 48 h
The source made the active and inactive calls. Rule as the data show it: active = GI50 up to about 1.1 µM and inactive = higher.
Outcome codes: active, inactive

compound	label.class
CNc1ccc(OC)cc1S(=O)(=O)c1ccccc1[N+](=O)[O-]	inactive
COc1cccc(OC)c1/C=N\N1C(=O)c2ccccc2C1=O	inactive
O=C1OC(c2ccc([N+](=O)[O-])cc2)=N/C1=C\c1ccc(Cl)cc1	inactive
CN1CCN(C(=O)CCNC(=O)Cc2ccc(C(=O)c3ccccc3)cc2)CC1	inactive
CC(=O)c1c(C)cc2cccc(OC3OC(CO)C(O)C(O)C3O)c2c1O.CC1OC(O)C(O)C(O)C1O (stereo not given)	inactive
CCC(C)C(NC(=O)C(CCCC[N+](=N)N)NC(=O)C(CCCC[N+](=N)N)NC(=O)c1ccc(OC)cc1)C(=O)NC(CCCC[N+](=N)N)C(=O)N1CCCC1C(=O)NC(CCCCN)C(=O)NC(CC(C)C)C(N)=O (stereo not given)	inactive
COC(=O)c1sc(C(=O)OC)c2c1CSC2	inactive
COc1cc([C@@H]2c3cc4c(cc3C[C@H]3COC(=O)[C@@H]32)OCO4)cc(OC)c1OC	active
C#CCN(N=O)C(=O)NCCCC(NC(C)=O)C(=O)NCc1ccccc1 (stereo not given)	inactive
CCCn1c2ccccc2c2ccc3c(c21)C(=O)C=CC3=O	inactive
